Test system: cbb promoter
Type: cell-based, Ralstonia eutropha
Run Conditions: Table 12, chemoautotrophic (induced) growth
Kindly state Chemoautotrophic β-galactosidase activity for each of the entries shown.

Just so you know, measured Chemoautotrophic β-galactosidase activity for P269S/T299I (protein) MSSFLRALTLRQLQIFVTVARHASFVRAAEELHLTQPAVSMQVKQLESVVGMALFERVKGQLTLTEPGDRLLHHASRILGEVKDAEEGLQAVKDVEQGSITIGLISTSKYFAPKLLAGFTALHPGVDLRIAEGNRETLLRLLQDNAIDLALMGRPPRELDAVSEPIAAHPHVLVASPRHPLHDAKGFDLQELRHETFLLREPGSGTRTVAEYMFRDHLFTPAKVITLGSNETIKQAVMAGMGISLLSLHTLGLELRTGEIGLLDVAGTSIERIWHVAHMSSKRLSPASESCRAYLLEHIAEFLGREYGGLMPGRRVA came out at 3879 nmol/min/mg of protein

Please fill in: Chemoautotrophic β-galactosidase activity reported for P221S/T299I (protein) MSSFLRALTLRQLQIFVTVARHASFVRAAEELHLTQPAVSMQVKQLESVVGMALFERVKGQLTLTEPGDRLLHHASRILGEVKDAEEGLQAVKDVEQGSITIGLISTSKYFAPKLLAGFTALHPGVDLRIAEGNRETLLRLLQDNAIDLALMGRPPRELDAVSEPIAAHPHVLVASPRHPLHDAKGFDLQELRHETFLLREPGSGTRTVAEYMFRDHLFTSAKVITLGSNETIKQAVMAGMGISLLSLHTLGLELRTGEIGLLDVAGTPIERIWHVAHMSSKRLSPASESCRAYLLEHIAEFLGREYGGLMPGRRVA = 5312 nmol/min/mg of protein

For this molecule ( T232I (protein) MSSFLRALTLRQLQIFVTVARHASFVRAAEELHLTQPAVSMQVKQLESVVGMALFERVKGQLTLTEPGDRLLHHASRILGEVKDAEEGLQAVKDVEQGSITIGLISTSKYFAPKLLAGFTALHPGVDLRIAEGNRETLLRLLQDNAIDLALMGRPPRELDAVSEPIAAHPHVLVASPRHPLHDAKGFDLQELRHETFLLREPGSGTRTVAEYMFRDHLFTPAKVITLGSNEIIKQAVMAGMGISLLSLHTLGLELRTGEIGLLDVAGTPIERIWHVAHMSSKRLSPASESCRAYLLEHTAEFLGREYGGLMPGRRVA ), measured Chemoautotrophic β-galactosidase activity is 5005 nmol/min/mg of protein
